Sourced from BigSolDB 2.1

- study-conditions: in cyclohexane, 298.2 K
measured-property: solubility (mole fraction)
One number for each entry.

Query: What value of solubility (mole fraction) has been reported for the following molecule? C=C(C)[C@@H]1CC[C@]2(CO)CC[C@]3(C)[C@H](CC[C@@H]4[C@@]5(C)CC[C@H](O)C(C)(C)[C@@H]5CC[C@]43C)[C@@H]12
Response: 6.34e-05

* * *

- study-conditions: in n-hexanol, 278.2 K
measured-property: solubility (mole fraction)
Give bare numbers.

Query: What value of solubility (mole fraction) has been reported for the following molecule? C=C(C)[C@@H]1CC[C@]2(CO)CC[C@]3(C)[C@H](CC[C@@H]4[C@@]5(C)CC[C@H](O)C(C)(C)[C@@H]5CC[C@]43C)[C@@H]12
Response: 0.000744

* * *

- study-conditions: in ethyl acetate, 278.2 K
measured-property: solubility (mole fraction)
Give bare numbers.

Query: What value of solubility (mole fraction) has been reported for the following molecule? C=C(C)[C@@H]1CC[C@]2(CO)CC[C@]3(C)[C@H](CC[C@@H]4[C@@]5(C)CC[C@H](O)C(C)(C)[C@@H]5CC[C@]43C)[C@@H]12
Response: 0.000963

* * *

- study-conditions: in n-pentanol, 298.2 K
measured-property: solubility (mole fraction)
Numbers only.

Query: What value of solubility (mole fraction) has been reported for the following compound? C=C(C)[C@@H]1CC[C@]2(CO)CC[C@]3(C)[C@H](CC[C@@H]4[C@@]5(C)CC[C@H](O)C(C)(C)[C@@H]5CC[C@]43C)[C@@H]12
Response: 0.00143

* * *

- study-conditions: in n-pentanol, 308.2 K
measured-property: solubility (mole fraction)

Query: What value of solubility (mole fraction) has been reported for the following compound? C=C(C)[C@@H]1CC[C@]2(CO)CC[C@]3(C)[C@H](CC[C@@H]4[C@@]5(C)CC[C@H](O)C(C)(C)[C@@H]5CC[C@]43C)[C@@H]12
Response: 0.00171

* * *

- study-conditions: in methyl formate, 283.2 K
measured-property: solubility (mole fraction)
One number for each entry.

Query: What value of solubility (mole fraction) has been reported for the following compound? C=C(C)[C@@H]1CC[C@]2(CO)CC[C@]3(C)[C@H](CC[C@@H]4[C@@]5(C)CC[C@H](O)C(C)(C)[C@@H]5CC[C@]43C)[C@@H]12
Response: 0.000212

* * *

- study-conditions: in chloroform, 278.2 K
measured-property: solubility (mole fraction)

Query: What value of solubility (mole fraction) has been reported for the following compound? C=C(C)[C@@H]1CC[C@]2(CO)CC[C@]3(C)[C@H](CC[C@@H]4[C@@]5(C)CC[C@H](O)C(C)(C)[C@@H]5CC[C@]43C)[C@@H]12
Response: 0.0026

* * *

- study-conditions: in ethyl formate, 278.2 K
measured-property: solubility (mole fraction)

Query: What value of solubility (mole fraction) has been reported for the following compound? C=C(C)[C@@H]1CC[C@]2(CO)CC[C@]3(C)[C@H](CC[C@@H]4[C@@]5(C)CC[C@H](O)C(C)(C)[C@@H]5CC[C@]43C)[C@@H]12
Response: 0.000301

* * *

- study-conditions: in ethanol, 308.2 K
measured-property: solubility (mole fraction)
Answers are plain numbers.

Query: What value of solubility (mole fraction) has been reported for the following compound? C=C(C)[C@@H]1CC[C@]2(CO)CC[C@]3(C)[C@H](CC[C@@H]4[C@@]5(C)CC[C@H](O)C(C)(C)[C@@H]5CC[C@]43C)[C@@H]12
Response: 0.00113
